Tested on: 786-0 (Renal cancer)
RESULT TYPE: GI50 (nM)
Report only the number, with the unit nM understood.

Illustrative cases are given below, each with its answer.
COMPOUND	GI50, nM
CC(C)=C1CCC=C2CC[C@]3(C)[C@H](CC[C@@H]4[C@@]5(C)CCCNC(C)(C)[C@@H]5CC[C@]43C)[C@H]21	1710
C=C(C)[C@@H]1CCC=C2CC[C@]3(C)[C@H](CC[C@@H]4[C@@]5(C)CCCNC(C)(C)[C@@H]5CC[C@]43C)[C@H]21	1760
Cc1ccc(S(=O)(=O)OC[C@@]2(C)CC[C@]3(C)CC[C@]4(C)C(=C3C2)C=C[C@@H]2[C@@]3(C)CCCNC(C)(C)[C@@H]3CC[C@]24C)cc1	1840
CC1(C)NCCC[C@]2(C)[C@H]3C=CC4=C5C[C@@](C)(CO)CC[C@]5(C)CC[C@@]4(C)[C@]3(C)CC[C@@H]12	2660
CC1(C)CC[C@]2(CO)CC[C@]3(C)C(=CC[C@@H]4[C@@]5(C)CCCNC(C)(C)[C@@H]5CC[C@]43C)[C@@H]2C1	2250
CC1(C)CC[C@]23CC[C@]4(C)[C@H](CC[C@@H]5[C@@]6(C)CCCNC(C)(C)[C@@H]6CC[C@]54C)[C@H]2[C@H]1OC3	1660
C=C(C)[C@@H]1CC[C@]2(COS(=O)(=O)c3ccc(C)cc3)CC[C@]3(C)[C@@H](CC[C@@H]4[C@@]5(C)CCCNC(C)(C)[C@@H]5CC[C@]43C)[C@@H]12	1920
C=C(C)[C@@H]1CC[C@]2(C)[C@H](C=CC3=C4C[C@@](C)(CO)CC[C@]4(C)CC[C@]32C)[C@@]1(C)CCCN	1680
C=C(C)[C@@H]1CC[C@]2(C)[C@H](CC=C3[C@@H]4[C@@H](C)[C@H](C)CC[C@]4(CO)CC[C@]32C)[C@@]1(C)CCCN	840
C=C(C)C1CCC2(CO)CCC3(C)C(CCC4C5(C)CCCNC(C)(C)C5CCC43C)C12 (centres unmarked)	1620

Shift focus to the following entry.
Q: Give the observed GI50 of `C=C(C)[C@@H]1CC[C@]2(C(=O)N[C@H](CO)Cc3ccccc3)CC[C@]3(C)[C@H](CC[C@@H]4[C@@]5(C)CCCNC(C)(C)[C@@H]5CC[C@]43C)[C@@H]12` for 786-0 (Renal cancer).
A: 400
